These measurements were taken from patent US20240368139A1.

Target: human EHMT1 982-1266 (Homo sapiens)
Sequence (Q9H9B1 982-1266): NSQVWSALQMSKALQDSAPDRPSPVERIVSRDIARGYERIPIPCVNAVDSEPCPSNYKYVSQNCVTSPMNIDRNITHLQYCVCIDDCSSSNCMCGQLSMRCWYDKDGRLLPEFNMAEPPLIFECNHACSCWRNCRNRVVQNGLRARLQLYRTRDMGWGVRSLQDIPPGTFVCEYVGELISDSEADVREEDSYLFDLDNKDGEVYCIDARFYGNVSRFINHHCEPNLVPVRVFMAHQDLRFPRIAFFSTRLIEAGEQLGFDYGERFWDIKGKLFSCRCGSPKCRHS
Test: EHMT1 enzyme assay on histone peptide substrate (3H-SAM SPA)
Details: EHMT1 IC50, recombinant human EHMT1 982-1266, histone peptide substrate
Would you mind telling me the reported IC50 of each entry?

Request - read-out IC50 | tested on human EHMT1 982-1266 (Homo sapiens) | molecule CNc1nc(Nc2cc3c(c(OCCCN4CCCC4)c2)OCC3)nc(C)c1F [Compound 108] > 2000 nM

# value lookup — system human EHMT1 982-1266 (Homo sapiens), readout IC50, item CNc1cc(C)nc(Nc2cc3c(c(C4=CCN(C)CC(O)C4)c2C)OCC3)n1 (single isomer, unassigned) [Compound 379] < 100 nM

Notebook entry, human EHMT1 982-1266 (Homo sapiens) assay: IC50 of [2H]C([2H])([2H])CNc1cc(C)nc(Nc2cc3c(c(C4=CCNCCC4)c2F)OCC3)n1 [Compound 231] = ? < 100 nM

Report IC50 for CNc1cc(C)nc(Nc2cc3c(c(C4=CCNC(CO)CC4)c2F)OCC3)n1 (single isomer, unassigned) [Compound 159-a] tested on human EHMT1 982-1266 (Homo sapiens). 500 to 2000 nM

Recorded IC50 for CNc1cc(C)nc(Nc2cc3c(c(C4=CCNCCC4)c2F)OCC3)c1 [Compound 328] with human EHMT1 982-1266 (Homo sapiens), please? < 100 nM

Form field: IC50 recorded for CNc1cc(C)nc(Nc2cc3c(c(C4=CCNCC4)c2)OCCC3)n1 [Compound 345] with human EHMT1 982-1266 (Homo sapiens) (enter value) 100 to 500 nM

Entry [2H]C([2H])([2H])Nc1cc(C)nc(Nc2cc3c(c(C4=CCNCCC4)c2)OCCC3)n1 [Compound 264] , system human EHMT1 982-1266 (Homo sapiens): what IC50 was measured? < 100 nM

Requested read-out IC50, target or system human EHMT1 982-1266 (Homo sapiens), entry CNc1cc(C)nc(Nc2cc3c(c(C4=CCNC(C)CC4)c2F)OCC3)n1 (single isomer, unassigned) [Compound 184] 100 to 500 nM

Give recorded IC50 with human EHMT1 982-1266 (Homo sapiens) for the following molecule: CNc1cc(C)nc(Nc2cc3c(c(C4=C[C@H]5CNC[C@H]5C4)c2)OCCC3)n1 [Compound 344] 100 to 500 nM

Form field - read-out: IC50; system: human EHMT1 982-1266 (Homo sapiens); submitted item: COCCCNc1cc(C)nc(Nc2cc3c(c(C4=CCNCCC4)c2)OCC3)n1 [Compound 310] < 100 nM

For human EHMT1 982-1266 (Homo sapiens), provide IC50 of CNc1nc(Nc2cc3c(c(C4=CCNCCC4)c2F)OCC3)nc(C)c1F [Compound 242] please. < 100 nM

# get_value(readout= IC50, system= human EHMT1 982-1266 (Homo sapiens)) for [2H]Cc1nc(Nc2cc3c(c(C4=CCN(C)CCC4)c2F)OCC3)nc(NCC([2H])([2H])[2H])c1F [Compound 222] 100 to 500 nM

// fetch human EHMT1 982-1266 (Homo sapiens) IC50 for [2H]Cc1cc(NC([2H])([2H])[2H])nc(Nc2cc3c(c(C4=CCNCCC4)c2)OCCC3)n1 [Compound 250] < 100 nM

Which measured IC50 belongs to CNc1cc(C)nc(Nc2cc(OCCCN3CCCC3)c3occc3c2)n1 [Compound 102] , tested on human EHMT1 982-1266 (Homo sapiens)? 100 to 500 nM

Request: IC50, test system human EHMT1 982-1266 (Homo sapiens), entry CNc1cc(C)nc(Nc2cc3c(c(C4=CCNCCC4)c2F)OCC32CC2)n1 [Compound 172] < 100 nM

Lab note: need IC50 with human EHMT1 982-1266 (Homo sapiens) for entry CNc1cc(C)nc(Nc2cc3c(c(C4=CCNC[C@@H](O)C4)c2F)OC[C@H]3C)n1 (stereo in doubt) [Compound 420] , please look it up. < 100 nM
